We begin with a simple list: items and their reported residual activity.
# EXPERIMENTAL TARGET: CSK (human)
# PROCEDURE SUMMARY: radiometric filter-binding kinase assay, Kinase HotSpot
# TEST CONTEXT: compound 0.5 µM; ATP 10 µM
Reply with the number, then its unit.

O=C1NC(=O)c2c1c1c3ccccc3n3c1c1c2c2ccccc2n1C1CCC3O1
79.7%
Nc1ccc2ncnc(NCCc3ccc(Oc4ccccc4)cc3)c2c1
96.7%
CCN(CC)C(=O)c1ccc(Nc2nc(OCC3CCCCC3)c3nc[nH]c3n2)cc1
83.1%
Cc1ccc(S(=O)(=O)/C=C/C#N)cc1
97.2%
COc1cc2ncnc(Nc3cccc(Cl)c3)c2cc1OC
91.1%

Here is another molecule to look at.
Query block: // lookup residual activity for "N#CC(C#N)=C(N)/C(C#N)=C/c1ccc(O)cc1"
Result block: 97.6%
